tested on: IGF1-induced S6 phosphorylation; experiment: Growth factor induced S6 ribosomal protein phosphorylation in primary human fibroblasts; type: cell-based; details: normal human dermal fibroblasts (NHDF), stimulated with 10 nM IGF-1; read-out: Inhibition of IGF1-induced S6 phosphorylation IC50
Give IC50 for every item shown.
Numbers only, in nM.

// solved cases for IC50 follow
- MOLECULE: "CN1CCN(c2ccc(C(=O)Nc3n[nH]c4c3CN(S(=O)(=O)c3cc(F)cc(F)c3)C4(C)C)c(NC(=O)[C@@H]3CCCO3)c2)CC1"
  IC50 [nM]: 740
- MOLECULE: "CC(C)CNc1cc(N2CCN(C)CC2)ccc1C(=O)Nc1n[nH]c2c1CN(S(=O)(=O)c1cc(F)cc(F)c1)C2(C)C.Cl [Compound 90, hydrochloride]"
  IC50 [nM]: 5300

Recorded result, CN1CCN(c2ccc(C(=O)Nc3n[nH]c4c3CN(S(=O)(=O)c3cc(F)cc(F)c3)C4(C)C)c(NC(=O)c3cc[nH]c3)c2)CC1 , IC50: 300
